Cited source: the Immune Epitope Database (IEDB)

- target.or.test.system: HLA-B*46:01
- experiment.notes: IEDB peptide-MHC binding, purified MHC/direct/fluorescence; filed as Kd, often an IC50 or EC50 that approximates it; bounds were set here for any values at or beyond the usual limits of such assays
- condition.summary: source organism: Escherichia coli O157:H7
Listed here are sequences together with their documented Kd.

RMFEKSTHH    ≥ 20 µM
LQLTAVFAY    ≥ 20 µM

Continue with the next sequence.
Task: Consider the sequence shown here: LDKGKLWHL What is its recorded Kd?
Output: ≥ 20 µM

* * *

Listed here are sequences together with their documented pKd.
- target.or.test.system: HLA-A*03:01
- experiment.notes: IEDB peptide-MHC binding, purified MHC/competitive/radioactivity; filed as Kd, often an IC50 or EC50 that approximates it; bounds were set here for any values at or beyond the usual limits of such assays
- condition.summary: source organism: Vaccinia virus WR
pKd (log units): -log10 of the concentration in mol/L.

NVISSKISY    6.19
DFRNRYEDY    5.56
CAGVIEYAK    6.01
LSSKGLACYR    6.89
QTCAGVIEY    5.49

Task: Consider the sequence shown here: LFVKKMLPK What is its recorded pKd?
Output: 5.82

Task: Consider the sequence shown here: ETKITFALKK What is its recorded pKd?
Output: 5.91

Task: Consider the sequence shown here: KSDAKRNSK What is its recorded pKd?
Output: 5.94

Task: Consider the sequence shown here: ILSYIYSEIK What is its recorded pKd?
Output: 7.41

Task: Consider the sequence shown here: RQTVSRFKK What is its recorded pKd?
Output: 7.40

Task: Consider the sequence shown here: GTSNWTGNY What is its recorded pKd?
Output: 7.94

Task: Consider the sequence shown here: VTFRERYSYK What is its recorded pKd?
Output: 9.34

Task: Consider the sequence shown here: FSNTILLSDK What is its recorded pKd?
Output: 7.59

Task: Consider the sequence shown here: SSRVDRYSKK What is its recorded pKd?
Output: 6.55

Task: Consider the sequence shown here: RLLIWAYLSK What is its recorded pKd?
Output: 9.80

Task: Consider the sequence shown here: QIFEVYWYL What is its recorded pKd?
Output: 5.97

Task: Consider the sequence shown here: IIVNNQESNK What is its recorded pKd?
Output: 5.95
